ASSAYED TARGET: alpha-1 receptors
METHOD: Inhibition of binding of [3H]Prazosine to rat alpha-1 receptors
CONDITION LABEL: [3H]Prazosine 0.25 nM, membranes from rat brain
pIC50: −log10 of the molar value.
Answer -1 if pIC50 is under 7, and 1 if it is 7 or more.

O=C1CCc2ccccc2N1CCCCN1CCN(c2cccc(Cl)c2Cl)CC1 = 1
O=C(CCN1CCN(c2cccc(Cl)c2Cl)CC1)N1CCc2ccccc21 = 1
Clc1cccc(N2CCN(CCCCCN3CCc4ccccc43)CC2)c1Cl = -1
Clc1cccc(N2CCN(CCCc3c[nH]c4ccccc34)CC2)c1Cl = -1
Fc1ccc2[nH]cc(CCCN3CCN(c4cccc(Cl)c4Cl)CC3)c2c1 = -1
Clc1ccc2c(CCCN3CCN(c4cccc(Cl)c4Cl)CC3)c[nH]c2c1 = -1
Clc1ccc2c(SCCN3CCN(c4cccc(Cl)c4Cl)CC3)c[nH]c2c1 = -1
O=C(CCCN1CCN(c2cccc(Cl)c2Cl)CC1)N1CCc2ccccc21 = -1
O=C(CCCN1CCN(c2cccc(Cl)c2)CC1)N1CCc2ccccc21 = 1
Clc1ccccc1N1CCN(CCCCN2CCc3ccccc32)CC1 = 1
Clc1cccc(N2CCN(CCCCc3c[nH]c4ccccc34)CC2)c1Cl = -1
Fc1ccc2[nH]cc(CCCCN3CCN(c4cccc(Cl)c4Cl)CC3)c2c1 = -1
Clc1cccc(N2CCN(CCCCN3CCc4ccccc43)CC2)c1 = 1

====

ASSAYED TARGET: human cloned dopamine D4.2 receptors (Homo sapiens, UniProt P21917, DEL265-296)
Sequence (P21917 with tags, fused parts or gaps DEL265-296): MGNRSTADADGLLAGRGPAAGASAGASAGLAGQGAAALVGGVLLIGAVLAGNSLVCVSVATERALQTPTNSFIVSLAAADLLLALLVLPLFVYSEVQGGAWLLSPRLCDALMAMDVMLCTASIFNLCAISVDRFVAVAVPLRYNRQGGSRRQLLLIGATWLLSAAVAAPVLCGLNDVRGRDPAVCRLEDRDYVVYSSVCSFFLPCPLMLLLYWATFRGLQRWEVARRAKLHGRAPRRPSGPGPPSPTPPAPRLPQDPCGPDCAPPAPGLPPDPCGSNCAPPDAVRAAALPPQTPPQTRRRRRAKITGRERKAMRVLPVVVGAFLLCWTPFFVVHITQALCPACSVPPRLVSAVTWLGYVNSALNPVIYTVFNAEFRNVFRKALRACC
METHOD: Inhibition of the binding of [3H]YM-09151-2 to human dopamine D4 receptors
CONDITION LABEL: [3H]YM-09151-2 0.06 nM, membranes of CHO-cells; read-out: D4-bind. IC50
The following molecules are shown together with reported IC50 values.
PARAMETER MEASURED: IC50

Clc1cccc(N2CCN(CCCCN3CCc4ccccc43)CC2)c1 = 1.6 nM
O=C(CCCCN1CCN(c2cccc(Cl)c2Cl)CC1)N1CCc2ccccc21 = 39 nM
Clc1ccc2c(CCCN3CCN(c4cccc(Cl)c4Cl)CC3)c[nH]c2c1 = 27 nM
Fc1ccc2[nH]cc(CCCN3CCN(c4cccc(Cl)c4Cl)CC3)c2c1 = 3.9 nM
O=C(CCCN1CCN(c2cccc(Cl)c2)CC1)N1CCc2ccccc21 = 2.1 nM
Fc1ccc2[nH]cc(CCCCN3CCN(c4cccc(Cl)c4Cl)CC3)c2c1 = 8.6 nM
O=C(CCCN1CCN(c2cccc(Cl)c2Cl)CC1)N1CCc2cc(F)ccc21 = 53 nM
O=C(CCCN1CCN(c2cccc(Cl)c2Cl)CC1)N1CCc2ccccc21 = 2.8 nM
Clc1cccc(N2CCN(CCCCC3CCc4ccccc43)CC2)c1Cl (stereo not drawn) = 11 nM

====

ASSAYED TARGET: human cloned dopamine D4.2 receptors (Homo sapiens, UniProt P21917, DEL265-296)
METHOD: Inhibition of the binding of [3H]YM-09151-2 to human dopamine D4 receptors
CONDITION LABEL: [3H]YM-09151-2 0.06 nM, membranes of CHO-cells; read-out: D4-bind. IC50
PARAMETER MEASURED: IC50 (nM)

O=C(CCCN1CCN(c2ccccc2Cl)CC1)N1CCc2ccccc2C1 [Compound 8l] = 4
Clc1cccc(N2CCN(CCCCN3CCc4ccccc43)CC2)c1Cl [Compound 2b] = 12
O=C(CCN1CCN(c2cccc(Cl)c2Cl)CC1)N1CCc2ccccc2C1 [Compound 7d] = 6
O=C(CCCCN1CCN(c2cccc(Cl)c2Cl)CC1)N1CCc2cc(F)ccc21 [Compound 7c] = 61
O=C1CCc2ccccc2N1CCCCN1CCN(c2cccc(Cl)c2Cl)CC1 [Compound 6] = 16
Clc1cccc(N2CCN(CCCCc3c[nH]c4ccccc34)CC2)c1Cl [Compound 5b] = 14
O=C(CCN1CCN(c2ccccc2Cl)CC1)N1CCc2ccccc2C1 [Compound 8k] = 8
Clc1ccccc1N1CCN(CCCCN2CCc3ccccc32)CC1 [Compound 2d] = 1.2
